Reported Ki values for the following binders.
target: T1, prostate-specific membrane antigen (PSMA) (human, UniProt Q04609 44-750, limits assumed); assay: fluorescence polarization binding assay
T1 construct: also called Glutamate carboxypeptidase II; GCPII
T1 sequence (Q04609 44-750 limits assumed): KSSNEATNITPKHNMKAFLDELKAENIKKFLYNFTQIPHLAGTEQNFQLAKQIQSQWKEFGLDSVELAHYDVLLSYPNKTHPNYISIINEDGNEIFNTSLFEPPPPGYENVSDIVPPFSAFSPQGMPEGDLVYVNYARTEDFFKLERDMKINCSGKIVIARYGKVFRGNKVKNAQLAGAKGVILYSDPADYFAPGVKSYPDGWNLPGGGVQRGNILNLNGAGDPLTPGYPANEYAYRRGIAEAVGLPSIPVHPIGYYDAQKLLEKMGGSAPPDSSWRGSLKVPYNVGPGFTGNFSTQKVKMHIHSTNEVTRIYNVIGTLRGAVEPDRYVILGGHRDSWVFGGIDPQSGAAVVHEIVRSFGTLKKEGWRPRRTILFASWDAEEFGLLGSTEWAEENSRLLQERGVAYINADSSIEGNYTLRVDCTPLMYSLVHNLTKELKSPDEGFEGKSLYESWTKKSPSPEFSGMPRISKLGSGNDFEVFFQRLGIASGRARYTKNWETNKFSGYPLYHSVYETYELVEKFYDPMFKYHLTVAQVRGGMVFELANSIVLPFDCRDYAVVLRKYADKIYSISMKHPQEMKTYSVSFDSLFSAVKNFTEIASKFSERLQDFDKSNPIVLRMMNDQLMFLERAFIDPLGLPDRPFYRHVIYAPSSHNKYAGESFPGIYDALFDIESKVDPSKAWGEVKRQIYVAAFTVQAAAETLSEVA
Numbered stars: 1 amine (or outer) side, 2 acyl side, 3 side chain; on linkers, the order of the positions; unused ones are H or OH. Bridge positions count the residues as written; N and C are the ends. Square brackets hold non-standard residues; d marks the D form. Ends that are not written are not given here. TBMB = c1c(C[*:1])cc(C[*:3])cc1C[*:2]; Dap(Me) = CNC[C@H](N)C(=O)O
Value expressed in nM; do not type the unit.

1) EVCWD[Dap(Me)]FMMEDGT[Dap(Me)]A (linker 3-6-14 via TBMB, Bicyclic peptide on TBMB scaffold) [21-31-04-T01-N017] ... 700

Shift focus to the following entry.
Record summary for EVCWDCFMMEDGTCA (linker 3-6-14 via TBMB, Bicyclic peptide on TBMB scaffold, all thioether) [21-31-04-T01-N001] : reported Ki = 3

Ref: patent US20220194983A1
